tested on: SNB-19 CNS; experiment: NCI tumour cell line growth inhibition, 48 h
observed property: TGI

Worked examples, 4 compounds total:
O=C(NCc1cccc2ccccc12)N/N=C\c1ccc(Cl)cc1 | > 100 µM
N#Cc1c(-c2ccccc2)[nH]c(=O)n(C2OC(CO)C(O)C(O)C2O)c1=O (stereo not given) | > 100 µM
COc1cc2c(cc1OC)C1(COc3cc(O)c(O)c(O)c3C1=O)C2 (stereo not given) | > 50 µM
O=[N+]([O-])C1Cc2ccccc2OC1c1ccccc1 (stereo not given) | > 100 µM

Lab note: next compound to report on.
Ask: Item under review: COc1ccc(-c2c3c(n(C4OC(COC(C)=O)C(OC(C)=O)C(OC(C)=O)C4OC(C)=O)c(=S)c2C#N)CC(C)(C)CC3=O)cc1 (stereo not given) . Reported TGI?
Result: > 100 µM

Taken from PubChem BioAssay (NCI).
